All values here come from patent US20240360060A1.

assay-summary: Bioanalysis of Compound I in plasma and brain (UPLC-MS/MS)
Type: in vivo, mice
experimental-parameters: mouse, brain, ip, 150 mg/kg, brain, 150 mg/kg i.p., 30 min post-dose, n=6, read-out: Mean conc. in brain (head: Mean Plasma Conc.)
measurement-name: concentration at 30 min

Problem: Requested read-out: concentration at 30 min. Entry: "C=C(C)[C@@H]1C[C@H](O)C(C)=C[C@H]1c1c(O)cc(CCCC)cc1O"
Result: 169 µM

* * *

assay-summary: Bioanalysis of Compound I in plasma and brain (UPLC-MS/MS)
Assay type: in vivo, mice
experimental-parameters: mouse, plasma, ip, 150 mg/kg, plasma, 150 mg/kg i.p., 30 min post-dose, n=6, read-out: Mean Plasma Conc.
Protocol: Each animal was humanely killed immediately after production of a convulsion by destruction of the brain from striking the cranium, followed by the confirmation of permanent cessation of the circulation from decapitation under The Humane Killing of Animals under Schedule 1 to the Animals (Scientific Procedures) Act 1986. […] Bioanalysis experiments were carried out to determine the quantitative measurement of Compound I in plasma and brain. […]
measurement-name: concentration at 30 min (µM)
Quick note: give the figure in µM, leave out the unit.

Problem: Bench note: what concentration at 30 min did C=C(C)[C@@H]1C[C@H](O)C(C)=C[C@H]1c1c(O)cc(CCCC)cc1O [Compound I] show?
Result: 255
